tested on: human rhinovirus (HRV) serotypes; assay: microbe, parasite or virus in culture; format: cell-based; conditions: read-out: Rhinovirus MIC50
// assign class 1 if MIC50 falls strictly below 0.9 µg/mL, else class 0 (ties count as class 0)

Study these solved cases before continuing.
[
  {
    "compound": "Cc1cc(CCCCCOc2c(Cl)cc(C3=NC(C)CO3)cc2Cl)on1 (centres unmarked)",
    "category-label": "class 1"
  },
  {
    "compound": "Cc1cc(CCCCCCCOc2cccc(C3=NCCO3)c2)on1",
    "category-label": "class 0"
  },
  {
    "compound": "Cc1cc(CCCCCOc2c(Br)cc(C3=NCCO3)cc2Br)on1",
    "category-label": "class 1"
  },
  {
    "compound": "Cc1cc(CCCCCOc2ccc(C3=NCC(CO)O3)cc2)on1 (centres unmarked)",
    "category-label": "class 0"
  }
]

Moving on to the next compound.
Input: Please indicate whether the reported MIC50 of "CCCC[C@H]1COC(c2ccc(OCCCCCCCc3cc(C)no3)cc2)=N1" is strictly below 0.9 µg/mL.
Output: class 0
